- STUDY SYSTEM: HGFR (Homo sapiens)
- Construct: purchased Upstate 14-526
- Sequence (P08581 974-1390 limits assumed): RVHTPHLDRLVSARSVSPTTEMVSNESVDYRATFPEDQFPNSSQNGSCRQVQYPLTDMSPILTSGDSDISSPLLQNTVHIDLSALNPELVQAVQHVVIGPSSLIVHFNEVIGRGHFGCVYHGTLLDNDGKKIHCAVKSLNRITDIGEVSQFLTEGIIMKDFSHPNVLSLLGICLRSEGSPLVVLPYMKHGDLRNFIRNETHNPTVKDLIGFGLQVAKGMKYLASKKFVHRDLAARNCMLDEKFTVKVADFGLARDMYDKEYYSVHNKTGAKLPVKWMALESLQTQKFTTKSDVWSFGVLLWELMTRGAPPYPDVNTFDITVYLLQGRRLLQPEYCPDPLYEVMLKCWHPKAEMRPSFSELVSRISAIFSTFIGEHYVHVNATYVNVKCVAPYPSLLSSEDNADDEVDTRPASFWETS
- MEASUREMENT DESCRIPTION: HGFR continuous-coupled spectrophotometric assay
- Assay type: biochemical
- EXPERIMENTAL PARAMETERS: at 1 pM; Table 6, library procedure 41; read-out: % Inhibition (percent c-MET inhibition)
Please respond with reported inhibition at 1 pM for every item in the list.
One number for each entry, in %.

Below are worked cases with known answers.
MOLECULE: CN1CCN(C(=O)c2cnc(N)c(OCc3c(Cl)cccc3Cl)c2)CC1
ASSAY ENDPOINT: inhibition at 1 pM
DISPLAY UNIT: %
DATA VALUE: 32
//
MOLECULE: Nc1ncc(C(=O)NCCc2ccncc2)cc1OCc1c(Cl)cccc1Cl
ASSAY ENDPOINT: inhibition at 1 pM
DISPLAY UNIT: %
DATA VALUE: 30
//
MOLECULE: Nc1ncc(C(=O)N2CCN(CC(=O)Nc3ccccn3)CC2)cc1OCc1c(Cl)cccc1Cl
ASSAY ENDPOINT: inhibition at 1 pM
DISPLAY UNIT: %
DATA VALUE: 56

For every record below, what is its inhibition at 1 pM?
1. Nc1ncc(C(=O)NCc2ccc(F)cc2Cl)cc1OCc1c(Cl)cccc1Cl
2. CN(CCS(C)(=O)=O)C(=O)c1cnc(N)c(OCc2c(Cl)cccc2Cl)c1
3. Nc1ncc(C(=O)N2CCCC(C(=O)N3CCOCC3)C2)cc1OCc1c(Cl)cccc1Cl (centres unmarked)
4. Nc1ncc(C(=O)N2CCCC(O)C2)cc1OCc1c(Cl)cccc1Cl (centres unmarked)
5. Nc1ncc(C(=O)N2CCNC(=O)C2)cc1OCc1c(Cl)cccc1Cl
6. Nc1ncc(C(=O)N2CCN(CC(=O)N3CCCCC3)CC2)cc1OCc1c(Cl)cccc1Cl
7. Nc1ncc(C(=O)NCc2ccc(OC(F)(F)F)cc2)cc1OCc1c(Cl)cccc1Cl

A.
37
26
21
33
22
24
24

I have 5 molecules here; please give me inhibition at 1 pM for each one.
1. COc1ccc(C(NC(=O)c2cnc(N)c(OCc3c(Cl)cccc3Cl)c2)C2CC2)cc1 (centres unmarked)
2. CS(=O)(=O)C1CCN(C(=O)c2cnc(N)c(OCc3c(Cl)cccc3Cl)c2)C1 (centres unmarked)
3. Nc1ncc(C(=O)NCCc2c[nH]cn2)cc1OCc1c(Cl)cccc1Cl
4. CC(O)CNC(=O)c1cnc(N)c(OCc2c(Cl)cccc2Cl)c1 (centres unmarked)
5. CC1CCC(=O)C(NC(=O)c2cnc(N)c(OCc3c(Cl)cccc3Cl)c2)C1 (centres unmarked)

A.
[27, 23, 29, 49, 40]

Could you tell me inhibition at 1 pM for each of these molecules? They are listed below.
1. CCCC(CO)NC(=O)c1cnc(N)c(OCc2c(Cl)cccc2Cl)c1 (centres unmarked)
2. Nc1ncc(C(=O)NCc2ccccc2OC(F)(F)F)cc1OCc1c(Cl)cccc1Cl

A.
30
31

* * *

- STUDY SYSTEM: Met kinase domain (GST fusion protein) (Homo sapiens, UniProt P08581)
- Construct: Purified GST fusion protein containing the Met kinase domain
- Sequence (P08581 1078-1345 limits assumed): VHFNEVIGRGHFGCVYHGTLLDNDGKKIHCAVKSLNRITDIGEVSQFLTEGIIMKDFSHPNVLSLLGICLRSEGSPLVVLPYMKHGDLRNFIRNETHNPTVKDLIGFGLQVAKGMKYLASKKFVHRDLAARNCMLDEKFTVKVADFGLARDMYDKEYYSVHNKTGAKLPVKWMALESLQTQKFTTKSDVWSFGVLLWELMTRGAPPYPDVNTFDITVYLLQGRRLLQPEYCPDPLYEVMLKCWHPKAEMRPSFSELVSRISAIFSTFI
- MEASUREMENT DESCRIPTION: Met transphosphorylation assay (ELISA, poly(glu-tyr) substrate);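 note: Cell-free ELISA with plate-bound poly(Glu:Tyr 4:1) phosphorylated by GST-fused Met kinase domain plus ATP and Mn2+, phosphotyrosine detected by anti-phosphotyrosine antibody with HRP and ABTS read-out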
- Assay type: biochemical
- EXPERIMENTAL PARAMETERS: read-out: Met IC50
ASSAY ENDPOINT: IC50

Give IC50 for all compounds that follow.
1. CC(Oc1nc(-c2ccc(C(=O)N3CCC(NC4CC4)CC3)cc2)cnc1N)c1c(Cl)ccc(F)c1Cl (centres unmarked) [II-147]
2. C[C@@H]1CN(Cc2c[nH]c3ccc(-c4cnc(N)c(OCc5c(F)ccc(F)c5Cl)c4)cc23)C[C@H](C)O1 [Example I-71]
3. CC(Oc1nc(-c2cncc(C(=O)NCCCN3CCOCC3)c2)cnc1N)c1c(Cl)ccc(F)c1Cl (centres unmarked) [II-210]
4. Nc1ncc(-c2ccc(O)cc2)cc1OCc1ccccc1 [Example I-86]
5. Nc1ncc(-c2ccc(C(=O)NCCCN3CCOCC3)cc2)cc1OCc1ccccc1Cl [Example I-159]
6. Nc1ncc(-c2ccc(N3CCCS3(=O)=O)cc2)nc1OCc1c(Cl)cccc1Cl [II-2]

A.
1. 0.13 µM
2. 2.71 µM
3. 0.022 µM
4. 8.7 µM
5. 4.5 µM
6. 0.825 µM

Items follow; give IC50 for each.
1. CC(C)C(Oc1nc(-c2ccc(OCCN3CCOCC3)cc2)cnc1N)c1c(F)ccc(F)c1Cl (centres unmarked) [II-69]
2. COc1ccccc1-c1cnc(N)c(OCc2c(Cl)cccc2Cl)c1 [Example I-24]

A.
1: 10.6 µM; 2: 11.5 µM
